# TARGET_OF_ASSAY: T1, human GPC3 (human, UniProt P51654 25-563)
# T1 construct: range 25-563; soluble analyte; also called soluble human GPC3; glypican 3
# TEST_METHOD_NOTES: SPR
MEASUREMENT_NAME: log10 of Kd (log10 of the value in nM)
Hi team, quick reminder: these entries are log10 of Kd (nM).

Sample answers from the record:
{"BINDER": "GCH065-G1dh/none-Hi-Kn010G3/L0262-k0 (antibody, V domains shown, one-arm) VH: QVQLVQSGAEVKKPGASVTVSCKASGYTFTDYEMHWIRQPPGEGLEWIGAIDGPTPDTAYSEKFKGRVTLTADKSTSTAYMELSSLTSEDTAVYYCTRFYSYTYWGQGTLVTVSS VL: DIVMTQSPLSLPVTPGEPASISCRSSQPPVHSNRNTYLHWYQQKPGQAPRLLIYKVSNRFSGVPDRFSGSGSGTDFTLKISRVEAEDVGVYYCAQGTQVPYTFGQGTKLEIK", "log10 of Kd": -1.93}
{"BINDER": "H0610-G1dh/none-Hi-Kn010G3/L0129-k0 (antibody, V domains shown, one-arm) VH: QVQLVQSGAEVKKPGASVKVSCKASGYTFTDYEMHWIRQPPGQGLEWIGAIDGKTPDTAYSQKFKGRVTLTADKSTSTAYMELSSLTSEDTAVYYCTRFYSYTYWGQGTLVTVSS VL: DIVMTQSPLSLPVTPGEPASISCRSSQSLVHSNRNTYLHWYQQKPGQAPRLLIYKVSNRRSGVPDRFSGSGSGTDFTLKISRVEAEDVGVYYCGQGTQVPYTFGQGTKLEIK", "log10 of Kd": 0.72}
{"BINDER": "GCH065-G1dh/none-Hi-Kn010G3/L0201-k0 (antibody, V domains shown, one-arm) VH: QVQLVQSGAEVKKPGASVTVSCKASGYTFTDYEMHWIRQPPGEGLEWIGAIDGPTPDTAYSEKFKGRVTLTADKSTSTAYMELSSLTSEDTAVYYCTRFYSYTYWGQGTLVTVSS VL: DIVMTQSPLSLPVTPGEPASISCRSSQPPVHSNRNTYLHWYQQKPGQAPRLLIYKVSNRFSGVPDRFSGSGSGTDFTLKISRVEAEDVGVYYCGQGTQVPYTFGQGTKLEIKR", "log10 of Kd": -1.11}

log10 of Kd for H0610-G1dh/none-Hi-Kn010G3/L0000vk1-k0 (antibody, V domains shown, one-arm) VH: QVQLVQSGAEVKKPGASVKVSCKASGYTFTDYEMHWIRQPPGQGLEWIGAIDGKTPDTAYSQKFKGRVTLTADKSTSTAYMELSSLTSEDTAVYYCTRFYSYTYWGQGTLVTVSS VL: DIQMTQSPSSLSASVGDRVTITCRSSQSLVHSNRNTYLHWYQQKPGKAPKLLIYKVSNRFSGVPSRFSGSGSGTDFTFTISSLQPEDIATYYCGQGTQVPYTFGQGTKVEIK is 0.33

// log10 of Kd value for GCH065-G1dh/none-Hi-Kn010G3/L0000-k0 (antibody, V domains shown, one-arm) VH: QVQLVQSGAEVKKPGASVTVSCKASGYTFTDYEMHWIRQPPGEGLEWIGAIDGPTPDTAYSEKFKGRVTLTADKSTSTAYMELSSLTSEDTAVYYCTRFYSYTYWGQGTLVTVSS VL: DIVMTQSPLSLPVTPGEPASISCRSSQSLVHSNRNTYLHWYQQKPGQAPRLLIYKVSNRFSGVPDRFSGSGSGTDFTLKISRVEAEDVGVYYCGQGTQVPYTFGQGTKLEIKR : 0.15

Recorded log10 of Kd (binder H0610-G1dh/none-Hi-Kn010G3/L0079-k0 (antibody, V domains shown, one-arm) VH: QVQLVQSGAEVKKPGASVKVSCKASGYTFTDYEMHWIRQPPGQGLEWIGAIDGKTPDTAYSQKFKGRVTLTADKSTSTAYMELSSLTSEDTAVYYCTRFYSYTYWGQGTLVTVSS VL: DIVMTQSPLSLPVTPGEPASISCRSSQSLVHSNRNTYIHWYQQKPGQAPRLLIYKVSNRFSGVPDRFSGSGSGTDFTLKISRVEAEDVGVYYCGQGTQVPYTFGQGTKLEIK ): 0.63

Lab note: measured log10 of Kd of H0610-G1dh/none-Hi-Kn010G3/L0015-k0 (antibody, V domains shown, one-arm) VH: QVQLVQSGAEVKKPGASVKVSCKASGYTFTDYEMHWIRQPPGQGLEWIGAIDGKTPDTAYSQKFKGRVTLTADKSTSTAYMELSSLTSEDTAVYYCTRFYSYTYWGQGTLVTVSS VL: DIVMTQSPLSLPVTPGEPASISCRSSQSPVHSNRNTYLHWYQQKPGQAPRLLIYKVSNRFSGVPDRFSGSGSGTDFTLKISRVEAEDVGVYYCGQGTQVPYTFGQGTKLEIK was 0.12

Sure, the documented log10 of Kd for GCH073-G1dh/none-Hi-Kn010G3/L0011-k0 (antibody, V domains shown, one-arm) VH: QVQLVQSGAEVKKPGASVTVSCKASGYTFTDYEMHWIRQPPGEGLEWIGAIDGPTPDTAYSQKFEGRVTLTADKSTSTAYMELSSLTSEDTAVYYCTRFYSYTYWGQGTLVTVSS VL: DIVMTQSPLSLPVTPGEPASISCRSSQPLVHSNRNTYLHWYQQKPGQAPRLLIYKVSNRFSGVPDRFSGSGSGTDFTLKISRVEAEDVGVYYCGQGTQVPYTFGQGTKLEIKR is -0.04

Measured log10 of Kd of H0610-G1dh/none-Hi-Kn010G3/L0106-k0 (antibody, V domains shown, one-arm) VH: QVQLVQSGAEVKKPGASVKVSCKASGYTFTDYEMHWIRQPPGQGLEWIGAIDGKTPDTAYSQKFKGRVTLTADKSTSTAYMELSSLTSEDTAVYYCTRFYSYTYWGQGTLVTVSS VL: DIVMTQSPLSLPVTPGEPASISCRSSQSLVHSNRNTYLHWYQQKPGQAPRLLIYKVSHRFSGVPDRFSGSGSGTDFTLKISRVEAEDVGVYYCGQGTQVPYTFGQGTKLEIK : 0.75

log10 of Kd in this record for H0610-G1dh/none-Hi-Kn010G3/L0069-k0 (antibody, V domains shown, one-arm) VH: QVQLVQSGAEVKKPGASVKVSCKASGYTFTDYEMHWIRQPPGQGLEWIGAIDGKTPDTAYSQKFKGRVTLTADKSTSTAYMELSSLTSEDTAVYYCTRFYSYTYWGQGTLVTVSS VL: DIVMTQSPLSLPVTPGEPASISCRSSQSLVHSNRMTYLHWYQQKPGQAPRLLIYKVSNRFSGVPDRFSGSGSGTDFTLKISRVEAEDVGVYYCGQGTQVPYTFGQGTKLEIK : 0.73

Recorded values, source patent US20250066503A1.
